- Test: Serum pharmacokinetics of erlotinib and OSI-420 after gavage
- Measurement Conditions: female, Sprague-Dawley, rat, serum, oral, 6 mg/kg BW/day
Metric Name: concentration at 48 h (ng/mL)
Reply numerically in ng/mL, unit not repeated.

### Prompt Item C#Cc1cccc(Nc2ncnc3cc(OCCOC)c(OCCOC)cc23)c1 [Erlotinib] has what recorded concentration at 48 h?
### Response 0

###

- Test: Serum pharmacokinetics of erlotinib and OSI-420 after gavage
- Measurement Conditions: female, Sprague-Dawley, rat, serum, oral, 42 mg/kg BW
Metric Name: concentration at 4 h (ng/mL)
Form entry: value (ng/mL) — number only.

### Prompt GET /values?readout=concentration at 4 h&item= C#Cc1cccc(Nc2ncnc3cc(OCCOC)c(OCCOC)cc23)c1
### Response 1060

###

- Test: Serum pharmacokinetics of erlotinib and OSI-420 after gavage
- Measurement Conditions: female, Sprague-Dawley, rat, serum, oral, 6 mg/kg BW/day
Metric Name: concentration at 2 h
Number first, unit second.

### Prompt Give the measured concentration at 2 h of C#Cc1cccc(Nc2ncnc3cc(OCCOC)c(OCCOC)cc23)c1 .
### Response 708 ng/mL

###

- Test: Serum pharmacokinetics of erlotinib and OSI-420 after gavage
- Measurement Conditions: female, Sprague-Dawley, rat, serum, oral, 6 mg/kg BW/day
Metric Name: concentration at 4 h (ng/mL)
Unit ng/mL implied. Number only.

### Prompt Entry under review: C#Cc1cccc(Nc2ncnc3cc(OCCOC)c(OCCOC)cc23)c1 . Reported concentration at 4 h?
### Response 427

###

- Test: Serum pharmacokinetics of erlotinib and OSI-420 after gavage
- Measurement Conditions: female, Sprague-Dawley, rat, serum, oral, 6 mg/kg BW/day
Metric Name: concentration at 8 h
Param answer (str): number followed by unit.

### Prompt For C#Cc1cccc(Nc2ncnc3cc(OCCOC)c(OCCOC)cc23)c1 [Erlotinib] , what is its reported concentration at 8 h?
### Response 277 ng/mL

###

- Test: Serum pharmacokinetics of erlotinib and OSI-420 after gavage
- Measurement Conditions: female, Sprague-Dawley, rat, serum, po, 42 mg/kg
Metric Name: Cmax (ng/mL)
Just the number please, in ng/mL, no unit attached.

### Prompt I would be grateful if you could share the reported Cmax for C#Cc1cccc(Nc2ncnc3cc(OCCOC)c(OCCOC)cc23)c1 [Erlotinib] .
### Response 1590

###

- Test: Serum pharmacokinetics of erlotinib and OSI-420 after gavage
- Measurement Conditions: female, Sprague-Dawley, rat, serum, po, 6 mg/kg
Metric Name: Cmax (ng/mL)
Write the answer as a number in ng/mL, unit excluded.

### Prompt Entry C#Cc1cccc(Nc2ncnc3cc(OCCOC)c(OCCOC)cc23)c1 : reported Cmax = ?
### Response 708

###

- Test: Serum pharmacokinetics of erlotinib and OSI-420 after gavage
- Measurement Conditions: female, Sprague-Dawley, rat, serum, oral, 42 mg/kg BW
Metric Name: concentration at 8 h (ng/mL)
Give your result in ng/mL as a bare value.

### Prompt Need concentration at 8 h, item C#Cc1cccc(Nc2ncnc3cc(OCCOC)c(OCCOC)cc23)c1
### Response 1590

###

- Test: Serum pharmacokinetics of erlotinib and OSI-420 after gavage
- Measurement Conditions: female, Sprague-Dawley, rat, serum, oral, 42 mg/kg BW
Metric Name: concentration at 2 h (ng/mL)
# unit: ng/mL | format: bare number

### Prompt Report concentration at 2 h for C#Cc1cccc(Nc2ncnc3cc(OCCOC)c(OCCOC)cc23)c1 [Erlotinib] please.
### Response 1350
